Test: Selectivity by the ratio of binding affinity of acid to the binding affinity of its ester
Note that class boundaries on Selectivity are low end (below 60), middle (60 to below 200), high end (200 or more)

// query Using the reported Selectivity, which band applies to COC(=O)CC[C@@H]1N=C(c2ccccc2F)c2cc(Cl)ccc2-n2c(C)cnc21 ?
// result middle

// query Using the reported Selectivity, which band applies to COC(=O)CC[C@H]1N=C(c2ccccc2F)c2cc(Cl)ccc2-n2c1cnc2C ?
// result low end

// query Using the reported Selectivity, which band applies to COC(=O)CC[C@@H]1N=C(c2ccccn2)c2cc(Cl)ccc2-n2c(C)cnc21 ?
// result middle

// query Using the reported Selectivity, which band applies to COC(=O)CC[C@@H]1N=C(c2ccccn2)c2cc(Cl)ccc2-n2c1nc(C)c2C ?
// result low end

---

Catalogue of Recovery time values
Test system: Rattus norvegicus
Experiment: Compound was tested for its initial (rat) loss-of-righting reflex LORR recovery time at a dose of 25 mg/kg
Type: functional, organism-based
Parameters: dose 25 mg/kg; unit not given here
Provide a numeric answer; units are not to be included.

// query Send back Rattus norvegicus Recovery time of COC(=O)CC[C@@H]1N=C(c2ccccn2)c2cc(Cl)ccc2-n2ccnc21 only.
// result 7

// query Send back Rattus norvegicus Recovery time of COC(=O)CC[C@@H]1N=C(c2ccccn2)c2cc(Cl)ccc2-n2c(C)cnc21 only.
// result 9

// query Send back Rattus norvegicus Recovery time of COC(=O)CC[C@@H]1N=C(c2ccccc2F)c2cc(Cl)ccc2-n2ccnc21 only.
// result 17

// query Send back Rattus norvegicus Recovery time of COC(=O)CC[C@@H]1N=C(c2ccccc2F)c2cc(Cl)ccc2-n2c1cnc2C only.
// result 20

// query Send back Rattus norvegicus Recovery time of COC(=O)CC[C@@H]1N=C(c2ccccn2)c2cc(Cl)ccc2-n2cc(C)nc21 only.
// result 13

// query Send back Rattus norvegicus Recovery time of COC(=O)CC[C@@H]1N=C(c2ccccc2F)c2cc(Cl)ccc2-n2cc(C)nc21 only.
// result 6

// query Send back Rattus norvegicus Recovery time of COC(=O)CC[C@@H]1N=C(c2ccccc2F)c2cc(Cl)ccc2-n2c(C)cnc21 only.
// result 23

// query Send back Rattus norvegicus Recovery time of COC(=O)CC[C@@H]1N=C(c2ccccc2F)c2cc(Cl)ccc2NC1=O only.
// result 9

// query Send back Rattus norvegicus Recovery time of CNC1=Nc2ccc(Cl)cc2C(c2ccccc2F)=N[C@H]1CCC(=O)OC only.
// result 15

---

Assay: Aqueous solubility at pH 3 was determined
Type: physicochemical
property: solubility

Consider the worked cases shown below.
>>> reported_value("COC(=O)CC[C@@H]1N=C(c2ccccc2F)c2cc(Cl)ccc2NC1=O")
"< 3000 µg/mL"
>>> reported_value("COC(=O)CC[C@@H]1N=C(c2ccccn2)c2cc(Cl)ccc2-n2c(C)cnc21")
"13000 µg/mL"
>>> reported_value("Cc1ncc2n1-c1ccc(Cl)cc1C(c1ccccc1F)=NC2")
"≥ 8000 µg/mL"
>>> reported_value("COC(=O)CC[C@@H]1N=C(c2ccccc2F)c2cc(Cl)ccc2-n2c(C)cnc21")
"< 1000 µg/mL"

// query Provide measured solubility value, entry: CNC1=Nc2ccc(Cl)cc2C(c2ccccc2F)=N[C@H]1CCC(=O)OC
// result 13000 µg/mL

// query Provide measured solubility value, entry: COC(=O)CC[C@@H]1N=C(c2ccccn2)c2cc(Cl)ccc2NC1=O
// result 1000 µg/mL

// query Provide measured solubility value, entry: COC(=O)CC[C@@H]1N=C(c2ccccn2)c2cc(Cl)ccc2-n2cc(C)nc21
// result 2000 µg/mL
